molecular target: Eukaryotic translation initiation factor 4E (Homo sapiens)
Sequence (P06730 whole entry): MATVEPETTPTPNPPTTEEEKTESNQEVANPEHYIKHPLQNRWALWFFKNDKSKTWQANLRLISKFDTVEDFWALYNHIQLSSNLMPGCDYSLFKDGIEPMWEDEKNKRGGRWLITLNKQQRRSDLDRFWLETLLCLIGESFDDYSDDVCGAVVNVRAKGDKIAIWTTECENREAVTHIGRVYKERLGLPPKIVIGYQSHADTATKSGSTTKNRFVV
measuredProperty: IC50

>  <compoundStructureString>
O=C(O)/C(Cc1ccccc1[N+](=O)[O-])=N/Nc1nc2c(s1)CCc1cc(Cl)c(Cl)cc1-2

>  <readoutValue>
21.5 µM

$$$$

As a next step, examine the compound that follows.
Param readout= IC50; system= Eukaryotic translation initiation factor 4E (Homo sapiens); entry= "O=C(O)/C(Cc1ccccc1[N+](=O)[O-])=N\Nc1nc2c(s1)CCc1cc(Cl)c(Cl)cc1-2" ; returns value.
34 µM

----------
# key: entry, value: Retention_time
test: Retention time of the compound by RP-HPLC analysis; assay type: physicochemical

>  <compound>
COc1ccc2c(c1OC)OCc1sc(N/N=C(/Cc3ccccc3[N+](=O)[O-])C(=O)O)nc1-2

>  <measuredProperty>
Retention_time

>  <readoutValue>
10.38 min

$$$$
>  <compound>
COc1cc2c(cc1OC)-c1nc(N/N=C(/Cc3ccccc3[N+](=O)[O-])C(=O)O)sc1CC2

>  <measuredProperty>
Retention_time

>  <readoutValue>
11.22 min

$$$$
>  <compound>
COc1ccc2c(c1OC)OCc1sc(N/N=C(\Cc3ccccc3[N+](=O)[O-])C(=O)O)nc1-2

>  <measuredProperty>
Retention_time

>  <readoutValue>
8.78 min

$$$$

Can you look up the measured Retention_time of "O=C(O)/C(Cc1ccccc1[N+](=O)[O-])=N/Nc1nc2c(s1)CSc1c-2ccc(Cl)c1Cl" for me?
15.66 min

----------
Listed here: items and their measured Retention_time.
assay: Retention time of the compound by RP-HPLC analysis; type: physicochemical
Answer shape: numeric part, then the unit.

>  <compound>
O=C(O)/C(Cc1ccccc1[N+](=O)[O-])=N/Nc1nc2c(s1)COc1c-2ccc(Cl)c1Cl

>  <readoutValue>
11.6 min

$$$$
>  <compound>
O=C(O)/C(Cc1ccccc1[N+](=O)[O-])=N\Nc1nc2c(s1)CS(=O)(=O)c1cc(Cl)c(Cl)cc1-2

>  <readoutValue>
12.41 min

$$$$
>  <compound>
O=C(O)/C(Cc1ccccc1[N+](=O)[O-])=N\Nc1nc2c(s1)COc1cc(Cl)c(Cl)cc1-2

>  <readoutValue>
14.74 min

$$$$

# query: Retention_time of entry "O=C(O)/C(Cc1ccccc1[N+](=O)[O-])=N\Nc1nc2c(s1)CSc1cc(Cl)c(Cl)cc1-2"
13.33 min

# input compound: "O=C(O)/C(Cc1ccccc1[N+](=O)[O-])=N\Nc1nc2c(s1)COc1c-2ccc(Cl)c1Cl" ; wanted: its Retention_time
13.6 min

# Retention_time lookup, item "O=C(O)/C(Cc1ccccc1[N+](=O)[O-])=N/Nc1nc2c(s1)CCc1c-2ccc(Cl)c1Cl"
8.69 min

// Retention_time lookup, key: "O=C(O)/C(Cc1ccccc1[N+](=O)[O-])=N\Nc1nc2c(s1)CS(=O)(=O)c1c-2ccc(Cl)c1Cl"
13.63 min

Quick one: Retention_time for "O=C(O)/C(Cc1ccccc1[N+](=O)[O-])=N\Nc1nc2c(s1)CCc1c-2ccc(Cl)c1Cl" ?
11.39 min

----------
experiment: Retention time of the compound by RP-HPLC analysis; assay type: physicochemical
Decide using Retention_time: a value greater than or equal to 10 min is Fulfilled, a smaller one is Not fulfilled.

# count of solved cases: 5
>  <compound>
O=C(O)/C(Cc1ccccc1[N+](=O)[O-])=N/Nc1nc2c(s1)C[S+]([O-])c1c-2ccc(Cl)c1Cl (stereo not drawn)

>  <category>
Not fulfilled

$$$$
>  <compound>
O=C(O)/C(Cc1ccccc1[N+](=O)[O-])=N/Nc1nc2c(s1)CS(=O)(=O)c1cc(Cl)c(Cl)cc1-2

>  <category>
Fulfilled

$$$$
>  <compound>
O=C(O)/C(Cc1ccccc1[N+](=O)[O-])=N\Nc1nc2c(s1)C[S+]([O-])c1cc(Cl)c(Cl)cc1-2 (stereo not drawn)

>  <category>
Fulfilled

$$$$
>  <compound>
O=C(O)/C(Cc1ccccc1[N+](=O)[O-])=N\Nc1nc2c(s1)CSc1c-2ccc(Cl)c1Cl

>  <category>
Fulfilled

$$$$
>  <compound>
O=C(O)/C(Cc1ccccc1[N+](=O)[O-])=N/Nc1nc2c(s1)COc1cc(Cl)c(Cl)cc1-2

>  <category>
Fulfilled

$$$$

Dear colleague, could you confirm whether "COc1cc2c(cc1OC)-c1nc(N/N=C(\Cc3ccccc3[N+](=O)[O-])C(=O)O)sc1CO2" has Retention_time at or above 10 min?
Not fulfilled
